Test system: DMS 273 small cell lung
assaySummary: NCI tumour cell line growth inhibition, 48 h
The compounds listed here are annotated with their TGI.

Value lookup for TGI; key = CC1=C(Oc2ccccc2)C(CCC(=O)O)c2c(O)cc(Cl)c(O)c21 (stereo not given)
> 100 µM

Here is the next compound: CCN(CC)c1ccc(C(=O)c2ccccc2C(=O)O)c(O)c1
> 100 µM

Here is the next compound: C=CCC[CH2][Sn]([c]1ccccc1)([c]1ccccc1)[c]1ccccc1
3.03 µM

Here is the next compound: C#CCOCn1cnc2c(Cl)ncnc21
> 100 µM

Here is the next compound: NC1C[C@H](n2cc(/C=C/Br)c(=O)[nH]c2=O)C[C@@H]1CO (stereo not given in full)
> 100 µM

====

Tested on: K-562 leukemia
assaySummary: NCI tumour cell line growth inhibition, 48 h
parameterMeasured: GI50

Example entries and their recorded answers appear below.
| molecule | GI50 |
| --- | --- |
| Nc1ccccc1C#C/C=C\C#Cc1cccs1 | 3.53 µM |
| Cc1ccc(-c2cn3ccnc3c(-c3ccc(Cl)cc3)n2)cc1 | 0.0352 µM |
| COc1ccc(-c2csc(N(C(=O)N3CCN(c4cc5c(cc4F)c(=O)c(C(=O)O)cn5C4CC4)CC3)c3ccccc3)n2)cc1 | 3.1 µM |

Value lookup for GI50; key = N#Cc1cccc(CSc2ncnc3nc[nH]c23)c1
38.2 µM

Here is the next molecule: COC(=O)[C@@]1(C)CC[C@]2(C)CC[C@]3(C)C4=CC=C5C(=CC(=O)C(O)=C5C)[C@]4(C)[C@@H](O)C[C@@]3(C)[C@@H]2C1
4.25 µM

Here is the next molecule: CC1SC(c2ccccc2)N(CCc2cccs2)C1=O (stereo not drawn)
3.94 µM

Here is the next molecule: COc1cccc2c1c(C(=O)C(=O)Nc1cc(C)no1)cn2Cc1ccc(F)cc1
1.91 µM

Here is the next molecule: C1C[OH+]CC[OH+]CCNCC[OH+]CC[OH+]CCN1.N.[Cl-].[Pt+4]
12.7 µM

====

Tested on: M14 melanoma
assaySummary: NCI tumour cell line growth inhibition, 48 h; in the data active = GI50 below about 0.43 µM; inactive = the rest
// classify into 1 for active, -1 for inactive

| compound | classAssignment |
| --- | --- |
| CCCCCCCCN=C(N)c1ccc(N2CCN(c3ccc(C(N)=NCCCCCCCC)cc3)CC2)cc1 | -1 |
| Nc1nc2c(c3ncncc13)C(c1cccc(C(F)(F)F)c1)Cc1ncncc1-2 (configuration not stated) | -1 |
| CN1CCC(n2cnc(-c3ccc(F)cc3)c2-c2ccnc(NCCO)n2)CC1 | -1 |
| O=C(NCCO)Nc1ccc(-c2nc(N3CCOCC3)c3cccn3n2)cc1 | 1 |
| COc1ccc(-c2c3c(N)nc(-c4ccncc4)nc3nc3c2c(C)nn3-c2ccccc2)cc1 | -1 |

Field: outcome | Entry: CC(C)c1cc(-c2n[nH]c(=O)n2-c2ccc3c(ccn3C)c2)c(O)cc1O
1

Here is the next compound: COC(=O)[C@H](C[C@H](Cc1ccccc1)NC(=O)c1csc([C@@H](C[C@H](C(C)C)N(C)C(=O)[C@@H](NC(=O)[C@H]2CCCCN2C)C(C)C)OC(C)=O)n1)NC(=O)OCc1ccccc1
1

Here is the next compound: C1C[OH+]CC[OH+]CCNCC[OH+]CC[OH+]CCN1.N.[Cl-].[Pt+4]
-1

The measurements presented in this section are drawn from PubChem BioAssay (NCI).
